# assay_comment: gradient 5% acetonitrile 3 min, to 50% in 2 min, to 85% in 15 min, held 3 min, 100 µL/min
# assay_context: column: Zorbax Extend-C18 2.1 x 50 mm; eluents: water / acetonitrile, 0.1% formic acid
assay_metric: RP-LC retention time (s)

A. O=c1[nH]cc(S(=O)(=O)NC2CCCC2)c(=O)[nH]1
B. COc1ccc(-c2noc(CN3N=NC4C(=O)N(c5ccc6c(c5)CCC6)C(=O)C43)n2)c(OC)c1 (stereo not given)
Query :: Please choose the item with the lower RP-LC retention time value from this pair: A and B Response format: the label of the selected entry.
Result :: A
(A: 600 s, B: 959 s)

1. CC(CCNC(=O)Cn1c2ccccc2c2cnn(C)c(=O)c21)N1CCCC1 (stereo not given)
2. COc1ccc(-c2nnc(-c3cccnc3NCCC3=CCCCC3)o2)cc1
Query :: Lower value of RP-LC retention time belongs to which: 1 or 2 ? Identify your pick by its label.
Result :: 1
(1: 595 s, 2: 1330 s)
